protein stability index listing for selected sequences.
PROTOCOL SUMMARY: protein stability index of a GFP-peptide fusion (GPS, HEK-293T) (PSI 1-6); higher = more stable;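 note: 24-mer peptide tiles fused after GFP, lentivirally expressed, FACS-sorted into six equal bins by GFP/DsRed ratio, decoded by Illumina sequencing, PSI is the read-weighted mean bin number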
CONDITION: treatment: MLN4924 1 uM, 8 h; c terminus: a fixed tail appended
Number, no unit, nothing else.

stdin: Please report the recorded protein stability index for EGKMYTARKGKGAFCNGQKLQVSQ [IMPA1] .
stdout: 3.93

stdin: And the next one, TEEEDRIICEAHKVLGNRWAEIAK [MYBL2] ?
stdout: 3.92

stdin: Next record, please: RDVAAEAVARSPKRPAWGSRRFEA [POMT2]
stdout: 3.94

* * *

PROTOCOL SUMMARY: protein stability index of a GFP-peptide fusion (GPS, HEK-293T) (PSI 1-6); higher = more stable
CONDITION: treatment: MLN4924 1 uM, 8 h; c terminus: native
ENDPOINT LABEL: protein stability index
Just the number, please.

These solved cases illustrate the format of a correct answer.
RESIDUE CODES	ENDPOINT LABEL	NUMBER
RLVVQRCSGQKWMIRNWIKHARH [GALNT9]	protein stability index	2.69
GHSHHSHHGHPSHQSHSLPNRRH [C10orf62]	protein stability index	3.71
KEIQYLKDLIEEVRKARGKKRVP [ATF4]	protein stability index	2.33
QEKARQLLGRLKPSHTSRTLILS [MYBL2]	protein stability index	2.32
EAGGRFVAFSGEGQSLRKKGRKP [UFD1]	protein stability index	3.29

stdin: Item SGCSSELKNRMEYALNMLLQRCN [PLK2] has what recorded protein stability index?
stdout: 3.77

stdin: Query YNIKLEGKVPMHKLFLEMLEAKV [ESRRG] next
stdout: 2.43

stdin: How about SKYGRDWERYTAAVPYRLLPGIF [DHCR7] ?
stdout: 2.57

stdin: # iterate: KALEDFEDLCDRVFSDEDSELDN [FAM9B]
stdout: 5.17

stdin: And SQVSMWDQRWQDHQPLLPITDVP [APBB1IP] ?
stdout: 3.22

stdin: Next up: LFYKPGIVLLLALAKYLKMNNFL [GULP1]
stdout: 2.87

stdin: And for RSFWELIGEAAKSVKLERPVRGH [S100A14] ?
stdout: 2.65

stdin: Could you do the same for TVPSAATSQPTPSQHSAHTSSQP [CCDC6] , please?
stdout: 5.33
